Assayed System: α-glucosidase (fungal source from Saccharomyces cerevisiae)
Test Name: α-Glucosidase inhibitory assay (PNPG)
Type: biochemical
Test Context: maximum concentration 200 µg/mL; means ± SEM of three measurements
Reported Endpoint: α-Glucosidase IC50 (µg/mL)
Hi! Could you send only the number? It should be in µg/mL, unit omitted.

Smiles Structure	Recorded Value
COc1c(O)cc2c(=O)oc3c(OC)c(O[C@@H]4O[C@H](CO)[C@@H](O)[C@H](O)[C@H]4O)cc4c(=O)oc1c2c34	97.75

We next turn to a different compound, shown below.
# input compound: `COc1c(O)cc2c(=O)oc3c(OC)c(O)cc4c(=O)oc1c2c34` ; wanted: its α-Glucosidase IC50 74.18

Reference source: paper PMC11174011
